Test system: winter wheat (Vershin variety)
Experiment: Winter wheat seed treatment with BHMPA salts: germinating power (length and mass of roots and sprouts)
Type: in vivo
Details: 1·10^−8% solution
Classify as follows. Reported Mass, wet, root, + % to control greater than or equal to 10%: YES. Reported Mass, wet, root, + % to control below: NO.

* O=P([O-])(CO)CO.[Na+] [Na-salt, Sodium BHMPA Salt] | YES
* O.O.O=P([O-])(CO)CO.O=P([O-])(CO)CO.[Co+2] [Co-salt, Cobalt BHMPA Salt] | YES
* O=P([O-])(CO)CO.O=P([O-])(CO)CO.[Mg+2] [Mg-salt, Magnesium BHMPA Salt] | YES
* O.O.O=P([O-])(CO)CO.O=P([O-])(CO)CO.[Mn+2] [Mn-salt, Manganese BHMPA Salt] | YES
* O=P([O-])(CO)CO.O=P([O-])(CO)CO.[Zn+2] [Zn-salt, Zinc BHMPA Salt] | NO

---

System: corn (Krasnodar 385 MV variety)
Test: Corn seed treatment with BHMPA salts: germination energy and germination rate
Assay type: in vivo
Settings: 1·10^−9% solution
Let's look at some molecules and their measured Germination energy.
recorded metric: Germination energy (%)

- O.O.O=P([O-])(CO)CO.O=P([O-])(CO)CO.[Co+2] [Co-salt, Cobalt BHMPA Salt]: 80.7
- O=P([O-])(CO)CO.O=P([O-])(CO)CO.[Zn+2] [Zn-salt, Zinc BHMPA Salt]: 88.3
- O=P([O-])(CO)CO.O=P([O-])(CO)CO.[Ca+2] [Ca-salt, Calcium BHMPA Salt]: 85.0
- O.O.O=P([O-])(CO)CO.O=P([O-])(CO)CO.[Mn+2] [Mn-salt, Manganese BHMPA Salt]: 87.7
- O=P([O-])(CO)CO.O=P([O-])(CO)CO.[Mg+2] [Mg-salt, Magnesium BHMPA Salt]: 89.71
- O=P([O-])(CO)CO.[Na+] [Na-salt, Sodium BHMPA Salt]: 87.7

---

Test system: rice (Diamant variety)
Experiment: Rice seed treatment with BHMPA salts: germinating power
Assay type: in vivo
Settings: rice seed treatment, comparison with Melaphen (Table XXXIII), solution 1 · 10^−9%
Let's look at some compounds and their measured Mass, wet, sprout, + % to control.
recorded metric: Mass, wet, sprout, + % to control (%)

- O.O.O=P([O-])(CO)CO.O=P([O-])(CO)CO.[Co+2] [Co-salt, Cobalt BHMPA Salt]: 51
- O=P([O-])(CO)CO.O=P([O-])(CO)CO.[Ca+2] [Ca-salt, Calcium BHMPA Salt]: 48
- O.O.O=P([O-])(CO)CO.O=P([O-])(CO)CO.[Mn+2] [Mn-salt, Manganese BHMPA Salt]: 55
- O=P([O-])(CO)CO.O=P([O-])(CO)CO.[Zn+2] [Zn-salt, Zinc BHMPA Salt]: 70

---

Tested on: rice (Diamant variety)
Assay: Rice seed treatment with BHMPA salts: germinating power
Type: in vivo
Conditions: rice seeds; solution concentration 1 · 10^−8%
Let's look at some molecules and their measured Mass, dry, sprout.
recorded metric: Mass, dry, sprout (g/100 plantlings)

- O=P([O-])(CO)CO.O=P([O-])(CO)CO.[Ca+2] [Ca-salt, Calcium BHMPA Salt]: 0.28
- O.O.O=P([O-])(CO)CO.O=P([O-])(CO)CO.[Co+2] [Co-salt, Cobalt BHMPA Salt]: 0.31
- O=P([O-])(CO)CO.O=P([O-])(CO)CO.[Mg+2] [Mg-salt, Magnesium BHMPA Salt]: 0.43
- O=P([O-])(CO)CO.[Na+] [Na-salt, Sodium BHMPA Salt]: 0.31
- O.O.O=P([O-])(CO)CO.O=P([O-])(CO)CO.[Mn+2] [Mn-salt, Manganese BHMPA Salt]: 0.41

---

Tested on: winter wheat (Vershin variety)
Experiment: Winter wheat seed treatment with BHMPA salts: germinating power (length and mass of roots and sprouts)
Type: in vivo
Details: 1·10^−8% solution
recorded metric: Length, sprout (cm)

* O.O.O=P([O-])(CO)CO.O=P([O-])(CO)CO.[Mn+2] [Mn-salt, Manganese BHMPA Salt] | 6.0
* O=P([O-])(CO)CO.[Na+] [Na-salt, Sodium BHMPA Salt] | 6.7
* O=P([O-])(CO)CO.O=P([O-])(CO)CO.[Zn+2] [Zn-salt, Zinc BHMPA Salt] | 7.5
* O.O.O=P([O-])(CO)CO.O=P([O-])(CO)CO.[Co+2] [Co-salt, Cobalt BHMPA Salt] | 5.5
* O=P([O-])(CO)CO.O=P([O-])(CO)CO.[Ca+2] [Ca-salt, Calcium BHMPA Salt] | 6.4
* O=P([O-])(CO)CO.O=P([O-])(CO)CO.[Mg+2] [Mg-salt, Magnesium BHMPA Salt] | 7.4

---

Tested on: winter wheat (Vershin variety)
Assay: Winter wheat seed treatment with BHMPA salts: germinating power (length and mass of roots and sprouts)
Format: in vivo
Conditions: 1·10^−9% solution
recorded metric: Length, root

- O.O.O=P([O-])(CO)CO.O=P([O-])(CO)CO.[Mn+2] [Mn-salt, Manganese BHMPA Salt]: 4.6 cm
- O=P([O-])(CO)CO.O=P([O-])(CO)CO.[Zn+2] [Zn-salt, Zinc BHMPA Salt]: 10.9 cm
- O=P([O-])(CO)CO.O=P([O-])(CO)CO.[Mg+2] [Mg-salt, Magnesium BHMPA Salt]: 10.9 cm
- O=P([O-])(CO)CO.[Na+] [Na-salt, Sodium BHMPA Salt]: 5.7 cm
- O=P([O-])(CO)CO.O=P([O-])(CO)CO.[Ca+2] [Ca-salt, Calcium BHMPA Salt]: 6.5 cm
- O.O.O=P([O-])(CO)CO.O=P([O-])(CO)CO.[Co+2] [Co-salt, Cobalt BHMPA Salt]: 6.5 cm

---

System: winter wheat (Vershin variety)
Assay: Winter wheat seed treatment with BHMPA salts: germinating power (length and mass of roots and sprouts)
Assay type: in vivo
Details: 1·10^−8% solution
Protocol: Experimental versions—soaking seeds in BHMPA solutions and solutions of BHMPA Ca, Mg, Na, Co, Mn, Cu, and Zn salts at 1·10^−6-1·10^−12% concentrations (doses). The studies were conducted in laboratory in Petri dishes; seed bed—two layers of filter paper. […] Seed germination energy and rate were calculated in percent as an arithmetic mean of the four experimental results (germination energy on the 4th day, wheat germination on the 8th day, rice and corn germination—on the 7th day). […]
Field 'label' (enum: condition met / condition not met). Set to condition met when Mass, dry, sprout is strictly under 0.6 g/100 plantlings; else condition not met.

- O.O.O=P([O-])(CO)CO.O=P([O-])(CO)CO.[Mn+2] [Mn-salt, Manganese BHMPA Salt]: condition not met
- O.O.O=P([O-])(CO)CO.O=P([O-])(CO)CO.[Co+2] [Co-salt, Cobalt BHMPA Salt]: condition met
- O=P([O-])(CO)CO.O=P([O-])(CO)CO.[Ca+2] [Ca-salt, Calcium BHMPA Salt]: condition met
- O=P([O-])(CO)CO.[Na+] [Na-salt, Sodium BHMPA Salt]: condition not met
- O=P([O-])(CO)CO.O=P([O-])(CO)CO.[Zn+2] [Zn-salt, Zinc BHMPA Salt]: condition not met
- O=P([O-])(CO)CO.O=P([O-])(CO)CO.[Mg+2] [Mg-salt, Magnesium BHMPA Salt]: condition not met

---

Tested on: rice (Diamant variety)
Assay: Rice seed treatment with BHMPA salts: germinating power
Type: in vivo
Conditions: rice seeds; solution concentration 1 · 10^−10%
Experimental: Experimental versions—soaking seeds in BHMPA solutions and solutions of BHMPA Ca, Mg, Na, Co, Mn, Cu, and Zn salts at 1·10^−6-1·10^−12% concentrations (doses). The studies were conducted in laboratory in Petri dishes; seed bed—two layers of filter paper. […] Seed germination energy and rate were calculated in percent as an arithmetic mean of the four experimental results (germination energy on the 4th day, wheat germination on the 8th day, rice and corn germination—on the 7th day). […]
Classify as follows. Reported Mass, dry, sprout greater than or equal to 0.4 g/100 plantlings: 1.0. Reported Mass, dry, sprout below: 0.0.

- O=P([O-])(CO)CO.[Na+] [Na-salt, Sodium BHMPA Salt]: 0.0
- O.O.O=P([O-])(CO)CO.O=P([O-])(CO)CO.[Co+2] [Co-salt, Cobalt BHMPA Salt]: 0.0
- O=P([O-])(CO)CO.O=P([O-])(CO)CO.[Ca+2] [Ca-salt, Calcium BHMPA Salt]: 0.0
- O=P([O-])(CO)CO.O=P([O-])(CO)CO.[Mg+2] [Mg-salt, Magnesium BHMPA Salt]: 1.0

---

Let's look at some compounds and their measured length of the sprout increased by.
System: rice (Diamant variety)
Assay: Rice seed treatment with BHMPA salts: germinating power
Assay type: in vivo
Details: rice; vs control; 1·10^−9% solution
recorded metric: length of the sprout increased by

• O.O.O=P([O-])(CO)CO.O=P([O-])(CO)CO.[Mn+2] [Mn-salt, Manganese BHMPA Salt] = 32%
• O=P([O-])(CO)CO.O=P([O-])(CO)CO.[Ca+2] [Ca-salt, Calcium BHMPA Salt] = 28%
• O=P([O-])(CO)CO.O=P([O-])(CO)CO.[Zn+2] [Zn-salt, Zinc BHMPA Salt] = 50%
• O.O.O=P([O-])(CO)CO.O=P([O-])(CO)CO.[Co+2] [Co-salt, Cobalt BHMPA Salt] = 52%
